Kindly supply the reported viability at 48 h, 10 µM values for the records listed here.
- assay-info: in vitro
- Set-up: species or system CCD841, HEK293
- test-context: human, hb2 cells, read-out: HB-2 Cells Viability (%)
Answers are plain numbers, in %.

                                   molecule  recorded_number
0                  C=CC(=O)Nc1ccc(N(C)C)cc1              102
1  CC(NC(=O)CCl)c1cccc(Cl)c1 (stereo not drawn)             69.6

For each listed entry, give its viability at 48 h, 10 µM.
1. O=C1CN(C(=O)CCl)CCN1
2. C=CC(=O)N(C)C1CCCCNC1=O (stereo not drawn)
3. CC(C)N(C(=O)CCl)c1ccccc1
4. O=C(CCl)NNC(=O)c1ccccc1F
5. O=C(CCl)NCC#Cc1cccc(C(F)(F)F)c1

1: 95.3; 2: 95.7; 3: 58.6; 4: 98; 5: 56.8

Count: 4. Required value per item: viability at 48 h, 10 µM.
1. O=C(CCl)Nc1cc(F)ccc1F
2. O=C(CCl)Nc1ccc(OC(F)(F)F)cc1
3. O=C(CCl)NC1CCCC1
4. O=C(CCl)NCc1cccc(Cl)c1

1. 38.2
2. 13.3
3. 71.9
4. 83.4

Lab book: viability at 48 h, 10 µM of COC(=O)c1c(NC(=O)CCl)sc2c1CCC(C)C2 (stereo not drawn) noted as 40.8

* * *

Please respond with reported NUDT7 for every item in the list.
- study-system: NUDT7 (Homo sapiens)
- Construct: residues 14-235, E. coli, pNIC28-Bsa4, N-terminal His6 tag removed by TEV, construct 26672 Da
- Sequence (P0C024 14-235): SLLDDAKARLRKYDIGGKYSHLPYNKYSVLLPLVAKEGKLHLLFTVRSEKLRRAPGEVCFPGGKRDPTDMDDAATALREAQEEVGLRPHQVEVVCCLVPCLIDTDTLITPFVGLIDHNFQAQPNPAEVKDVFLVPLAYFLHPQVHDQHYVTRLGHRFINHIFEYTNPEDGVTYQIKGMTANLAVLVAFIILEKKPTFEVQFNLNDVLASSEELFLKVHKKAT
- Parameters: Intact protein LC/MS covalent labelling, fragments in pools of five, 200 uM each, 4 °C
- test-context: 24 h, 4 °C, pool of five; 200 µM; covalent
- Protocol: Incubations were performed at 200 μM for each compound and 2 μM of protein (10 μM for BSA) for 24 h at 4 °C with moderate shaking. […] Following incubation, we used intact protein [compound left out] chromatography/mass spectrometry (LC/MS) to identify the fragments and quantify their labeling (Figure 3A). […]
Give bare numbers.

Give NUDT7 for each of the items listed below.
1. CCc1sc(C(=O)NNC(=O)CCl)cc1C [PCM-0103009]
2. Cc1c(C#N)c(NC(=O)CCl)n(C2CCCC2)c1C [PCM-0102183]
3. O=C(CCl)N1CCOCC1C1CC1 (centres unmarked) [PCM-0102870]

[0, 0.28, 0.17]

* * *

- assay-info: in vitro
- Design: species or system CCD841, HEK293
- test-context: human, hb2 cells, read-out: HB-2 Cells Viability (%)
quantity-measured: viability at 48 h, 10 µM (%)
Give bare numbers, in %.

Example results:
>>> df
                                   compound         quantity_measured  recorded_number
0  C=CC(=O)N1CCCC1c1cc(C)on1 (centres unmarked)  viability at 48 h, 10 µM              103
1                      O=C(CCl)Nc1cccc(F)c1  viability at 48 h, 10 µM               25

Quick one: give me viability at 48 h, 10 µM for each item below, same order please.
1. CC(=O)c1cc2c(cc1NC(=O)CCl)OCO2
2. CNC(=O)NC(=O)CCl
3. O=C(CCl)N1CCNCC1.O=C(O)C(F)(F)F

[59.9, 97.9, 101]

// each compound listed below needs its viability at 48 h, 10 µM
1. CC(C)C(=O)NNC(=O)CCl
2. C=CC(=O)N1C(C)CNCC1C.O=C(O)C(F)(F)F (centres unmarked)
3. C=CC(=O)N1CC(OC(=O)NC(C)C)C1
4. CC(C)(C)C1CCc2sc(C(=O)NNC(=O)CCl)cc2C1 (centres unmarked)
5. C=CC(=O)Nc1ccc(N2CCOCC2)cc1
6. CC1CC(C)CN(C(=O)CCl)C1 (centres unmarked)

1: 98.8; 2: 104; 3: 99.7; 4: 64; 5: 99.9; 6: 102

Working through the 8 compounds below one at a time, give viability at 48 h, 10 µM for each.
1. COc1ccc(NC(=O)CCl)cc1Cl
2. O=C(CCl)NNC(=O)c1cccc(Cl)c1
3. C=CC(=O)Nc1ccc2c(c1)NC(=O)CO2
4. O=C(CCl)Nc1ccccc1[N+](=O)[O-]
5. C=CC(=O)N1CCC(CN2C(=O)CNC2=O)C1 (centres unmarked)
6. O=C(CCl)N1N=C(c2ccco2)CC1c1cccs1 (centres unmarked)
7. Cc1noc(NC(=O)CCl)n1
8. O=C(CCl)N1CCCC1=O

1. 10
2. 84.7
3. 104
4. 75.4
5. 96.6
6. 14.9
7. 103
8. 111

Okay, here is my list. What is viability at 48 h, 10 µM for each of these?
1. C=CC(=O)N1CCCN(C(=O)C2CCCO2)CC1 (centres unmarked)
2. C=CC(=O)N1CCCCC1C(=O)O (centres unmarked)
3. C=CC(=O)N1CCC(c2nc(C(F)(F)F)c[nH]2)CC1
4. CC(NC(=O)CCl)c1ccco1 (centres unmarked)

1: 98.2; 2: 101; 3: 95.7; 4: 95.8

* * *

- study-system: OTUB2 (OTUB2A) (Homo sapiens, UniProt Q96DC9)
- Construct: full length residues 1-234, E. coli BL21(DE3)-R3, His tag removed by TEV, construct 27312 Da
- Sequence (Q96DC9 whole entry, the tested form may be a part): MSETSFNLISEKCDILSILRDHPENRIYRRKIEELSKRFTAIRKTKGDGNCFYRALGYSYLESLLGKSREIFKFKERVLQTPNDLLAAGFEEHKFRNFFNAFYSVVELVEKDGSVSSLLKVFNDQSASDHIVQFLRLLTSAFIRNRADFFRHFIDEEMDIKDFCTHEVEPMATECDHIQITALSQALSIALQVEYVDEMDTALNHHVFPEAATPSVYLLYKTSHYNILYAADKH
- Set-up: Intact protein LC/MS covalent labelling, fragments in pools of five, 200 uM each, 4 °C
- test-context: 24 h, 4 °C, pool of five; 200 µM; covalent
Please provide measured OTUB2 for the entries that follow.
Give bare numbers.

>>> df
                             compound  quantity_measured  recorded_number
0  C=CC(=O)N1CC(OC(=O)Nc2cccc(F)c2)C1              OTUB2             0.17
1   NS(=O)(=O)c1ccc2c(c1)CCN2C(=O)CCl              OTUB2             0.21

Please state, for each entry, its recorded OTUB2.
1. Cc1ccccc1CC(=O)NNC(=O)CCl
2. CCN(C(=O)CCl)C1CC1
3. CC(C)n1nccc1NC(=O)CCl.Cl
4. O=C(CCl)Nc1ccccc1N1CCCC1
5. C=CC(=O)N1Cc2ccccc2CC1c1nnc(CC)o1 (centres unmarked)
6. C=CC(=O)NC1(c2nnc3n2CCCC3)CCC1
7. C=CC(=O)N1CCN(c2cc(C)nc(C)n2)CC1

0.3
0
0
0
0
0
0

Parameter requested: OTUB2. Apply to each item below.
1. Cc1ccsc1CN(C)C(=O)CCl
2. C=CC(=O)N1CC(NC(=O)C(F)(F)F)CCC1C(F)(F)F (centres unmarked)

[0, 0]

* * *

- study-system: NNMT (hNNMT) (Homo sapiens)
- Construct: wild type, N-terminal His6 tag kept (no cleavage described), E. coli, construct 31248 Da
- Sequence (P40261 whole entry): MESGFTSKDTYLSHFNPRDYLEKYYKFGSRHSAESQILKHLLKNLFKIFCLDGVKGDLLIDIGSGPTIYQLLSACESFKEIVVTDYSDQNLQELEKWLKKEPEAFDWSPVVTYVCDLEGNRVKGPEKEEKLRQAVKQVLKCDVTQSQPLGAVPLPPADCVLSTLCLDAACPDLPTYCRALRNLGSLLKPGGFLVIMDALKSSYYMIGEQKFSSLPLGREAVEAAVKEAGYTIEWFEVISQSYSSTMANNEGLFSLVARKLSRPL
- Parameters: Intact protein LC/MS covalent labelling, fragments in pools of five, 200 uM each, 4 °C
- test-context: 24 h, 4 °C, pool of five; 200 µM; covalent
For each entry below, report its NNMT value.
Answers are plain numbers.

// known answers, use as guide
>>> print(df.to_string())
                                compound                 study_system  recorded_number
0            CCOC(=O)N1CCC(NC(=O)CCl)CC1  NNMT (hNNMT) (Homo sapiens)             0.23
1          Cc1ccc(Cn2ccsc2=NC(=O)CCl)cc1  NNMT (hNNMT) (Homo sapiens)                0
2  C=CC(=O)N1CCN(C(=O)CN2C(=O)CCC2=O)CC1  NNMT (hNNMT) (Homo sapiens)                0
3                  Cc1ccc(CNC(=O)CCl)cc1  NNMT (hNNMT) (Homo sapiens)                0
4               CC(C)N(C(=O)CCl)c1ccccc1  NNMT (hNNMT) (Homo sapiens)                0

# map each compound to its NNMT
1. NC(=O)c1ccsc1NC(=O)CCl
2. C=CC(=O)NCC1(O)CCCC(C(F)(F)F)C1 (stereo not drawn)
3. C=CC(=O)N1CCCCC1c1ccc(C(=O)NC)n1C (stereo not drawn)
4. O=C(CCl)NC(=O)NC1CCS(=O)(=O)C1 (stereo not drawn)
5. COc1ccc(C2CCCN2C(=O)CCl)cc1 (stereo not drawn)

1: 0.32; 2: 0; 3: 0.14; 4: 0; 5: 0
